Test system: Human immunodeficiency virus 1
Protocol: Antiviral activity against single-round HIV1 NLX.Lux-R harboring inactivating mutations in env, vpr and carries firefly luciferase gene in place of nef infected in human HeLa-T4 cells assessed as luciferase activity after 48 hrs […]
Format: functional, organism-based
Condition label: Human immunodeficiency virus 1, HeLaT4, 48 h
pEC50 overview
Formally, pEC50 is defined as -log10 of the concentration c, with c in mol/L.

Examples with answers:
>>> reading("Cc1cn([C@H]2C[C@H](N=[N+]=[N-])[C@@H](CO)O2)c(=O)[nH]c1=O [ZIDOVUDINE]")
8.08
>>> reading("COc1cc2c(cc1Cc1cccc(Cl)c1F)c(=O)c(C(=O)O)cn2[C@H](CO)C(C)C [ELVITEGRAVIR]")
8.54
>>> reading("Cc1nnc(C(=O)NC(C)(C)c2nc(C(=O)NCc3ccc(F)cc3)c(O)c(=O)n2C)o1 [RALTEGRAVIR]")
7.11
>>> reading("CC(C)OC(=O)OCOP(=O)(CO[C@H](C)Cn1cnc2c(N)ncnc21)OCOC(=O)OC(C)C.O=C(O)/C=C/C(=O)O [TENOFOVIR DISOPROXIL FUMARATE]")
8.54

Task: Which measured pEC50 value corresponds to O=C1Nc2ccc(Cl)cc2[C@@](C#CC2CC2)(C(F)(F)F)O1 [EFAVIRENZ] ?
Output: 8.96

Task: Follow-up item: Cc1ccnc2c1NC(=O)c1cccnc1N2C1CC1 [NEVIRAPINE]
Output: 7.14

====

selectivity ratio overview
Protocol: Selectivity index, ratio of CC50 for human HeLa-T4 cells to EC50 for single-round HIV1 NLX.Lux-R harboring inactivating mutations in env, vpr and carries firefly luciferase gene in place of nef
Format: toxicity, cell-based
Condition label: read-out: Ratio CC50/EC50
Answer as a number with no unit attached.

>>> reading("O=C1Nc2ccc(Cl)cc2[C@@](C#CC2CC2)(C(F)(F)F)O1 [EFAVIRENZ]")
31800
>>> reading("CC(C)OC(=O)OCOP(=O)(CO[C@H](C)Cn1cnc2c(N)ncnc21)OCOC(=O)OC(C)C.O=C(O)/C=C/C(=O)O [TENOFOVIR DISOPROXIL FUMARATE]")
11700

Next:
Task: Which measured selectivity ratio value corresponds to COc1cc2c(cc1Cc1cccc(Cl)c1F)c(=O)c(C(=O)O)cn2[C@H](CO)C(C)C [ELVITEGRAVIR] ?
Output: 11700

====

Test system: Human immunodeficiency virus 1
Protocol: Antiviral activity against single-round HIV1 NLX.Lux-R harboring inactivating mutations in env, vpr and carries firefly luciferase gene in place of nef infected in human HeLa-T4 cells assessed as time required to cause 50% loss in compound potency at 10 times EC95 by time-of-addition assay
Assay type: functional
Measured property: Time
Report field: quantity (unit follows the number).

>>> reading("Cc1nnc(C(=O)NC(C)(C)c2nc(C(=O)NCc3ccc(F)cc3)c(O)c(=O)n2C)o1")
"10.2 h"
>>> reading("Cc1cn([C@H]2C[C@H](N=[N+]=[N-])[C@@H](CO)O2)c(=O)[nH]c1=O")
"4.8 h"
>>> reading("Cc1ccnc2c1NC(=O)c1cccnc1N2C1CC1")
"7.2 h"

Next:
Task: Which measured Time value corresponds to `COc1cc2c(cc1Cc1cccc(Cl)c1F)c(=O)c(C(=O)O)cn2[C@H](CO)C(C)C` ?
Output: 11.1 h

====

Protocol: Cytotoxicity against human HeLaT4 cells by WST-1 assay
Format: cell-based
CC50 overview

Examples with answers:
>>> reading("Cc1ccnc2c1NC(=O)c1cccnc1N2C1CC1 [NEVIRAPINE]")
"> 100 µM"
>>> reading("Cc1cn([C@H]2C[C@H](N=[N+]=[N-])[C@@H](CO)O2)c(=O)[nH]c1=O [ZIDOVUDINE]")
"> 100 µM"
>>> reading("COc1cc2c(cc1Cc1cccc(Cl)c1F)c(=O)c(C(=O)O)cn2[C@H](CO)C(C)C [ELVITEGRAVIR]")
"34 µM"
>>> reading("O=C1Nc2ccc(Cl)cc2[C@@](C#CC2CC2)(C(F)(F)F)O1 [EFAVIRENZ]")
"35 µM"
>>> reading("CC(C)OC(=O)OCOP(=O)(CO[C@H](C)Cn1cnc2c(N)ncnc21)OCOC(=O)OC(C)C.O=C(O)/C=C/C(=O)O [TENOFOVIR DISOPROXIL FUMARATE]")
"34 µM"

Task: Which measured CC50 value corresponds to Cc1nnc(C(=O)NC(C)(C)c2nc(C(=O)NCc3ccc(F)cc3)c(O)c(=O)n2C)o1 [RALTEGRAVIR] ?
Output: > 100 µM

====

selectivity ratio overview
Protocol: Selectivity index, ratio of CC50 for human HeLa-T4 cells to EC50 for single-round HIV1 NLX.Lux-R harboring inactivating mutations in env, vpr and carries firefly luciferase gene in place of nef
Format: toxicity, cell-based
Condition label: read-out: Ratio CC50/EC50

Examples with answers:
>>> reading("Cc1cn([C@H]2C[C@H](N=[N+]=[N-])[C@@H](CO)O2)c(=O)[nH]c1=O")
"> 11900"
>>> reading("Cc1ccnc2c1NC(=O)c1cccnc1N2C1CC1")
"> 1370"

Next:
Task: Which measured selectivity ratio value corresponds to `Cc1nnc(C(=O)NC(C)(C)c2nc(C(=O)NCc3ccc(F)cc3)c(O)c(=O)n2C)o1` ?
Output: > 1300
